tested on: E-selectin expression in human umbilical vein-derived endothelial cells (HUVEC); assay: Inhibitory effect on TNF alpha-induced E-selectin expression in HUVEC (cell ELISA); assay type: cell-based; conditions: Homo sapiens, tumour necrosis factor α 100 U/ml, 5 hr
Quantity: IC50 (µM)
Give a bare numeral; the unit µM is implied.

// query What value of measured IC50 is listed for Cc1sc2c(c1C)C(c1ccc(Cl)cc1)=N[C@@H](CC(=O)Nc1ccc(O)cc1)c1nnc(C)n1-2.O.O [Compound 2, dihydrate] ?
// result 0.073
